molecular target: human STING (hSTING) (Homo sapiens, UniProt Q86WV6); construct: host or cells: HEK-Blue ISG cells (HEK293-derived SEAP reporter line); assay: Inhibition test of intracellular human STING (hSTING) pathway using SEAP reporter cells (HEK-Blue ISG), stimulation with Compound 3; type: cell-based; design: scale not given here; conditions: Compound 3 10 nM stimulation, 21 hours
Sequence (Q86WV6 whole entry H232R): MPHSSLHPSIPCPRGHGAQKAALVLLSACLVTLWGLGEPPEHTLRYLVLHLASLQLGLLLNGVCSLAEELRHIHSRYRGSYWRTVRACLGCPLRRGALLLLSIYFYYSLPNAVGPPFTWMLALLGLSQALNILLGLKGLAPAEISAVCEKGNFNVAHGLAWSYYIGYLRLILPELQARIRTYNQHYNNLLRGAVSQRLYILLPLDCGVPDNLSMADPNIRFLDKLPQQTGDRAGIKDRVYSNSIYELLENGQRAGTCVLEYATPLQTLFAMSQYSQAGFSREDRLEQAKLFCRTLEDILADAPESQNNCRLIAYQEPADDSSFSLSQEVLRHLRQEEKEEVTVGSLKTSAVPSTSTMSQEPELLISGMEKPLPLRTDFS
value.type: hSTING inhibitory activity

Below are worked cases with known answers.
compound	target	endpoint.result
Brc1ccc2[nH]cc(Nc3nc4c(-c5ccccc5)cccc4[nH]3)c2n1 [Embodiment 62]	human STING (hSTING) (Homo sapiens, UniProt Q86WV6)	* *
COCCn1c(Nc2c[nH]c3ccc(Br)nc23)nc2ccc(Oc3ccccc3)cc21 [Embodiment 93]	human STING (hSTING) (Homo sapiens, UniProt Q86WV6)	* * *
FC(F)(F)c1ccc2[nH]cc(Nc3nc4cc(Oc5ccccc5)ccc4[nH]3)c2n1 [Embodiment 55]	human STING (hSTING) (Homo sapiens, UniProt Q86WV6)	* *
Brc1ccc2[nH]cc(Nc3nc4cc(Oc5ccccc5)ccc4[nH]3)c2c1 [Example 3]	human STING (hSTING) (Homo sapiens, UniProt Q86WV6)	* *

Consider the compound shown here: CN(C)n1c(Nc2c[nH]c3ccc(Cl)cc23)nc2cc(OC(F)(F)F)ccc21 [Embodiment 258] What is its recorded hSTING inhibitory activity? * * *

Which hSTING inhibitory activity reading was recorded for the compound CCCCn1c(Nc2c[nH]c3ccc(Br)nc23)nc2ccc(Oc3ccccc3)cc21 [Embodiment 91] ? * * *

Record request: hSTING inhibitory activity value, item CN(C)n1c(Nc2c[nH]c3cc(F)c(F)cc23)nc2cc(C(F)(F)F)cc(F)c21 [Embodiment 279] * *

Hello, the source for this data is patent US20240279205A1, in case you need it.
